src = patent US10647713B2

Assay system: human TYK2 (JH2domain-pseudokinase) (Homo sapiens (Human), UniProt P29597)
Sequence (P29597 556-888): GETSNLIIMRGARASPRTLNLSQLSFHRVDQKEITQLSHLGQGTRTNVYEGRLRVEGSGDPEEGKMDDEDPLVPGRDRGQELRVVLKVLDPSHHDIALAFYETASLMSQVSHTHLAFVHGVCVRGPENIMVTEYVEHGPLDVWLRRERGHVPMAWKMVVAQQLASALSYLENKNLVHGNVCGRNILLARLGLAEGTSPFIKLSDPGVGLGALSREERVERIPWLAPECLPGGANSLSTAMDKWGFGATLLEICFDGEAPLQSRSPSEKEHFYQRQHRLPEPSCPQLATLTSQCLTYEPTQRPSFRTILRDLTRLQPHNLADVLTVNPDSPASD
Measurement protocol: TYK2 JH2 Domain Binding Assay (KINOMEscan, DiscoveRx)
Study conditions: 11-point dilution, duplicate
pKd: −log10 of the molar value.
Parameter: pKd

In the examples that follow, each entry is paired with its recorded pKd.
(Q) Give the measured pKd of COc1c(Nc2cc(NC(=O)C3CC3)nc3[nH]c(C(F)(F)F)nc23)cccc1-c1nnn(C)n1 .
(A) < 8.00

(Q) Query (molecule): CN=S(C)(=O)c1cc(-c2cnn(C)c2C)ccc1Nc1cc(NC(=O)C2CC2)nc2[nH]c(C(F)F)nc12 (stereo not shown) ; field requested: pKd
(A) > 10.00

(Q) Can you look up the measured pKd of Cc1nc2c(Nc3ccc(C4CC4)cc3S(C)(=O)=O)cc(Nc3cccc(C(F)(F)F)n3)nc2[nH]1 for me?
(A) 9.00 to 9.30

(Q) Please look up its pKd: Cc1ccc(Nc2cc(Nc3ccccc3N(C)S(C)(=O)=O)c3nc(C)[nH]c3n2)nn1
(A) 9.30 to 10.00

(Q) Value lookup for pKd; key = CP(C)(=O)c1cc(C2CCOCC2)ccc1Nc1cc(NC(=O)C2CC2)nc2[nH]c(C(F)F)nc12
(A) 9.00 to 9.30

Give pKd for each listed item.
1. Cc1cc(Nc2cc(Nc3ccc(-c4cc(C)n(C)n4)cc3S(C)(=O)=O)c3nc(C)[nH]c3n2)nc(C)n1
2. CN(c1cc(-c2cnn(C)c2)ccc1Nc1cc(NC(=O)C2CC2)nc2[nH]c(C(F)F)nc12)S(C)(=O)=O
3. Cc1nc2c(Nc3ccc([C@H]4CCCO4)cc3S(C)(=O)=O)cc(NC(=O)[C@H]3CC3(F)F)nc2[nH]1
4. CS(=O)(=O)c1cc(C2COCCO2)ccc1Nc1cc(NC(=O)C2CC2)nc2[nH]c(C(F)F)nc12 (stereo in doubt) [I-614]
5. Cc1nc2c(Nc3ccc(-c4cncn4C)cc3S(C)(=O)=O)cc(NC(=O)C3CC3(F)F)nc2[nH]1 (stereo not shown)

(A)
1. > 10.00
2. 9.30 to 10.00
3. 8.00 to 9.00
4. 9.30 to 10.00
5. 9.30 to 10.00
